Each recorded value in this set is attributed to patent US11702429B2.

- EXPERIMENTAL_TARGET: mTORC2 (Homo sapiens, UniProt P42345+P62942)
- Construct: endogenous in cells; host or cells: PC3 cells (human prostate adenocarcinoma)
- Sequence (P62942 2-108 limits assumed, other chains not shown): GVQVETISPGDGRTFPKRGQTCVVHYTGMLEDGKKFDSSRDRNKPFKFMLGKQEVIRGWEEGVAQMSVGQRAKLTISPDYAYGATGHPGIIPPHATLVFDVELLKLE
- TEST_PROTOCOL: Inhibition assay for mTORC2: phosphorylation of pAkt at Ser473, AlphaLISA in PC3 cells
- Assay type: cell-based
- CONDITION_PARAMETERS: PC3 cells, treated 24 hours, pAkt Ser473, AlphaLISA; C16 diastereomer mixtures not separated
MEASURED_PROPERTY: pIC50 mTORC2

**Query** Param readout = pIC50 mTORC2; param system = mTORC2 (Homo sapiens, UniProt P42345+P62942); param query = CO[C@@H]1C[C@H](C[C@@H](C)[C@@H]2CC(=O)[C@H](C)/C=C(\C)[C@@H](O)[C@@H](OC)C(=O)[C@H](C)C[C@H](C)/C=C/C=C/C=C(\C)C(OCCO)C[C@@H]3CC[C@@H](C)[C@@](O)(O3)C(=O)C(=O)N3CCCCC3C(=O)O2)CC[C@H]1OCCCN1CCO[C@H](C)C1 (stereo partly shown) ; response: value
**Result** B (5 to 6 as B)

**Query** Also need COCCCOC1CC2CCC(C)C(O)(O2)C(=O)C(=O)N2CCCCC2C(=O)OC(C(C)CC2CCC(OCCCO)C(OC)C2)CC(=O)C(C)C=C(C)C(O)C(OC)C(=O)C(C)CC(C)C=CC=CC=C1C (stereo not shown) , thanks.
**Result** B (5 to 6 as B)

**Query** Also need COCCOC1CC2CCC(C)C(O)(O2)C(=O)C(=O)N2CCCCC2C(=O)OC(C(C)CC2CCC(OCCO)C(OC)C2)CC(=O)C(C)C=C(C)C(O)C(OC)C(=O)C(C)CC(C)C=CC=CC=C1C (stereo not shown) , thanks.
**Result** B (5 to 6 as B)

---

- EXPERIMENTAL_TARGET: mTORC1 (Homo sapiens, UniProt P42345+P62942)
- Construct: endogenous in cells; host or cells: PC3 cells (human prostate adenocarcinoma)
- TEST_PROTOCOL: Inhibition assay for mTORC1: phosphorylation of pS6K at Thr389, AlphaLISA in PC3 cells
- Type: cell-based
- CONDITION_PARAMETERS: read-out: pIC50 mTORC1 (converted)
MEASURED_PROPERTY: IC50

**Query** Entry under review: CO[C@@H]1C[C@H](C[C@@H](C)[C@@H]2CC(=O)[C@H](C)/C=C(\C)[C@@H](O)[C@@H](OC)C(=O)[C@H](C)C[C@H](C)/C=C/C=C/C=C(\C)C(OCc3ccccc3)C[C@@H]3CC[C@@H](C)[C@@](O)(O3)C(=O)C(=O)N3CCCCC3C(=O)O2)CC[C@H]1O (stereo partly shown) [Compound 205] . Reported IC50?
**Result** < 0.316 nM

Others:
**Query** Entry under review: COC1C[C@@H]2CC[C@@H](C)[C@@](O)(O2)C(=O)C(=O)N2CCCCC2C(=O)O[C@H]([C@H](C)C[C@@H]2CC[C@@H](OC(=O)NCc3ccccn3)[C@H](OC)C2)CC(=O)[C@H](C)/C=C(\C)[C@@H](O)[C@@H](OC)C(=O)[C@H](C)C[C@H](C)/C=C/C=C/C=C/1C (stereo partly shown) [Compound 333] . Reported IC50?
**Result** < 0.316 nM

**Query** Also need CO[C@@H]1C[C@H](C[C@@H](C)[C@@H]2CC(=O)[C@H](C)/C=C(\C)[C@@H](O)[C@@H](OC)C(=O)[C@H](C)C[C@H](C)/C=C/C=C/C=C(\C)C(c3cc(C)cs3)C[C@@H]3CC[C@@H](C)[C@@](O)(O3)C(=O)C(=O)N3CCCCC3C(=O)O2)CC[C@H]1O (stereo partly shown) [Compound 203] , thanks.
**Result** > 3.16 nM

**Query** Also need COCCCOC1C[C@@H]2CC[C@@H](C)[C@@](O)(O2)C(=O)C(=O)N2CCCCC2C(=O)O[C@H]([C@H](C)C[C@@H]2CC[C@@H](O)[C@H](OC)C2)CC(=O)[C@H](C)/C=C(\C)[C@@H](O)[C@@H](OC)C(=O)[C@H](C)C[C@H](C)/C=C/C=C/C=C/1C (stereo partly shown) [Compound 225] , thanks.
**Result** < 0.316 nM

**Query** Also need COC1C[C@@H]2CC[C@@H](C)[C@@](O)(O2)C(=O)C(=O)N2CCCCC2C(=O)O[C@H]([C@H](C)C[C@@H]2CC[C@@H](OC(=O)NCCN3CCCCC3)[C@H](OC)C2)CC(=O)[C@H](C)/C=C(\C)[C@@H](O)[C@@H](OC)C(=O)[C@H](C)C[C@H](C)/C=C/C=C/C=C/1C (stereo partly shown) [Compound 365] , thanks.
**Result** < 0.316 nM

**Query** Also need CO[C@@H]1C[C@H](C[C@@H](C)[C@@H]2CC(=O)[C@H](C)/C=C(\C)[C@@H](O)[C@@H](OC)C(=O)[C@H](C)C[C@H](C)/C=C/C=C/C=C(\C)C(OC(C)C)C[C@@H]3CC[C@@H](C)[C@@](O)(O3)C(=O)C(=O)N3CCCCC3C(=O)O2)CC[C@H]1O (stereo partly shown) [Compound 208] , thanks.
**Result** 0.316 to 3.16 nM

**Query** Also need COC1C[C@@H]2CC[C@@H](C)[C@@](O)(O2)C(=O)C(=O)N2CCCCC2C(=O)O[C@H]([C@H](C)C[C@@H]2CC[C@@H](OCCCN3CCC(O)CC3)[C@H](OC)C2)CC(=O)[C@H](C)/C=C(\C)[C@@H](O)[C@@H](OC)C(=O)[C@H](C)C[C@H](C)/C=C/C=C/C=C/1C (stereo partly shown) [Compound 368] , thanks.
**Result** < 0.316 nM
